Sourced from patent US20210332142A1

- systemUnderTest: T1, recombinant human Tie2 extracellular domain (human, UniProt Q02763 23-748)
- T1 construct: whole entry named; also called Recombinant human Tie2 ECD; hu Tie2
- T1 sequence (Q02763 23-748 limits assumed): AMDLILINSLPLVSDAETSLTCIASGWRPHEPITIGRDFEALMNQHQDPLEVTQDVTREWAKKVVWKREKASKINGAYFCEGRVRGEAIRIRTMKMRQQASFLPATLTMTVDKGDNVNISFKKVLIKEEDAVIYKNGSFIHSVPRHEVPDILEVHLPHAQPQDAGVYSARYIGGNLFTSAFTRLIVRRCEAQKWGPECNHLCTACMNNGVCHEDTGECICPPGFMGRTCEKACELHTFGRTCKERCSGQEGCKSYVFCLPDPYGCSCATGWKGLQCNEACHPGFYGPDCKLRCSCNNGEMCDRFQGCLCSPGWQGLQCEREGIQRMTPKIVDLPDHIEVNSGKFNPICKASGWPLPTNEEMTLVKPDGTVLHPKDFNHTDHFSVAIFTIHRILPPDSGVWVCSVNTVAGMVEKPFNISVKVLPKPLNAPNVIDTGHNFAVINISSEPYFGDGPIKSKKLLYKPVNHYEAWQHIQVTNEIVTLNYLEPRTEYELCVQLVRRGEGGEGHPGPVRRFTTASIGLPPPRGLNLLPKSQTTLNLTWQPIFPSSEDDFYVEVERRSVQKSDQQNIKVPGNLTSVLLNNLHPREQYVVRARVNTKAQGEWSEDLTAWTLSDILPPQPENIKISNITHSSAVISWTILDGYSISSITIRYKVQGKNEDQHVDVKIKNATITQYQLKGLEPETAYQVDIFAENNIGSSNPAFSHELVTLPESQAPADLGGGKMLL
- assayMethodText: SPR, IgG captured, 37C
property: Normalized Binding Signal, 1500 nM
Numbers only.

Your task in this section: give Normalized Binding Signal, 1500 nM for each listed record.
1. Tie2.1.M100cW (antibody, IgG1, name in Kabat numbering, V domains shown, hIgG1) VH: EVQLVESGGGLVQPGGSLRLSCAASGFTFSNTDISWVRQAPGKGLEWVGRISPSDGNTYYADSVKGRFTISADTSKNTAYLQMNSLRAEDTAVYYCARRTRWASWAWDYWGQGTLVTVSS VL: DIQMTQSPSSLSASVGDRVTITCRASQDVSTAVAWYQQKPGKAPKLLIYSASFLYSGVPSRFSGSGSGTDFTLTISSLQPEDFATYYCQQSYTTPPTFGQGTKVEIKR
2. Tie2.1.M100cN (antibody, IgG1, name in Kabat numbering, V domains shown, hIgG1) VH: EVQLVESGGGLVQPGGSLRLSCAASGFTFSNTDISWVRQAPGKGLEWVGRISPSDGNTYYADSVKGRFTISADTSKNTAYLQMNSLRAEDTAVYYCARRTRWASWANDYWGQGTLVTVSS VL: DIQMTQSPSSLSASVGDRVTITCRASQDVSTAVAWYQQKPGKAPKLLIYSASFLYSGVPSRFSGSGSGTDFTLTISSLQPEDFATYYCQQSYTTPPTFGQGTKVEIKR
3. Tie2.1.M100cH (antibody, IgG1, name in Kabat numbering, V domains shown, hIgG1) VH: EVQLVESGGGLVQPGGSLRLSCAASGFTFSNTDISWVRQAPGKGLEWVGRISPSDGNTYYADSVKGRFTISADTSKNTAYLQMNSLRAEDTAVYYCARRTRWASWAHDYWGQGTLVTVSS VL: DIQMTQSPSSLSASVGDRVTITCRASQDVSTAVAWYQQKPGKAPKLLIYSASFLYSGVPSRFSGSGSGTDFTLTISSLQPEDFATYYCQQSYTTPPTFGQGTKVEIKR
4. Tie2.1.M100cL (antibody, IgG1, name in Kabat numbering, V domains shown, hIgG1) VH: EVQLVESGGGLVQPGGSLRLSCAASGFTFSNTDISWVRQAPGKGLEWVGRISPSDGNTYYADSVKGRFTISADTSKNTAYLQMNSLRAEDTAVYYCARRTRWASWALDYWGQGTLVTVSS VL: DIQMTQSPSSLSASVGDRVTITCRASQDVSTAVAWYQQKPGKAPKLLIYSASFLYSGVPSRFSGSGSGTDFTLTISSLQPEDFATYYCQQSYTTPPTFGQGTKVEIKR
5. Tie2.1.M100cT (antibody, IgG1, name in Kabat numbering, V domains shown, hIgG1) VH: EVQLVESGGGLVQPGGSLRLSCAASGFTFSNTDISWVRQAPGKGLEWVGRISPSDGNTYYADSVKGRFTISADTSKNTAYLQMNSLRAEDTAVYYCARRTRWASWATDYWGQGTLVTVSS VL: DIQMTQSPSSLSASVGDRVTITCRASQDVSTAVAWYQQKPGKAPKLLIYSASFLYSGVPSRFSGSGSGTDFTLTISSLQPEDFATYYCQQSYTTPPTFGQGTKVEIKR

Result ::
[0.31, 0.38, 0.39, 0.41, 0.1]
